Listing of recorded melting point by entry.
observable: melting point

compound: Cc1ccc(S(=O)(=O)SC2CCN(C(C(=O)C3CC3)c3ccccc3F)C2)cc1 (centres unmarked) [Example 4]
result: 98 to 106 °C

compound: O=C(C1CC1)C(c1ccccc1F)N1CCC(SS(=O)(=O)c2ccccc2)CC1 (centres unmarked) [Example 9]
result: 105 to 116 °C

compound: Cc1ccc(SSC2CCN(C(C(=O)C3CC3)c3ccccc3F)CC2)cc1 (centres unmarked) [Example 16]
result: 96 to 103 °C

compound: Cc1ccc([S+]([O-])SC2CCN(C(C(=O)C3CC3)c3ccccc3F)C2)cc1 (centres unmarked) [Example 14]
result: 87 to 100 °C

compound: COC(=O)C(c1ccccc1Cl)N1CCC(SS(=O)(=O)c2ccc(C)cc2)CC1 (centres unmarked) [Example 2]
result: 100 to 115 °C

compound: Cc1ccc(S(=O)(=O)SC2CCN(C(C(=O)C3CC3)c3ccccc3F)CC2)cc1 (centres unmarked) [Example 1]
result: 63 to 69 °C

compound: CCOC(=O)/C=C1\CN(C(C(=O)C2CC2)c2ccccc2F)CCC1SS(=O)(=O)c1ccc(C)cc1 (centres unmarked) [Example 6]
result: 94 to 103 °C

compound: COC(=O)/C=C1\CN(C(C(=O)OC)c2ccccc2Cl)CCC1SS(=O)(=O)c1ccc(C)cc1 (centres unmarked) [Example 7 (ii)]
result: 144 to 146 °C

* * *

compound: O=C(C1CC1)C(c1ccccc1F)N1CCC(SS(=O)(=O)c2ccc(Cl)cc2)CC1 (centres unmarked)
melting point: 108 to 116 °C
//
compound: COC(=O)C(c1ccccc1F)N1CCC(SS(=O)(=O)c2ccc(C)cc2)CC1 (centres unmarked)
melting point: 106 to 109 °C
//
compound: N[C@@H](CSSC1CCN(C(C(=O)C2CC2)c2ccccc2F)C/C1=C/C(=O)O)C(=O)O (some centres unmarked)
melting point: 135 to 138 °C
//
compound: CCOC(=O)/C=C1\CN(C(C(=O)OC)c2ccccc2Cl)CCC1SS(=O)(=O)c1ccc(C)cc1.Cl (centres unmarked)
melting point: 73 to 78 °C
//
compound: O=C(C1CC1)C(c1ccccc1F)N1CCC(SSc2ccccc2[N+](=O)[O-])CC1 (centres unmarked)
melting point: 110 to 116 °C
//
compound: O=C(C1CC1)C(c1ccccc1F)N1CCC(SS(=O)(=O)c2ccc(F)cc2)CC1 (centres unmarked)
melting point: 110 to 121 °C
//
compound: C[S+]([O-])SC1CCN(C(C(=O)C2CC2)c2ccccc2F)CC1 (centres unmarked)
melting point: 105 to 111 °C
//
compound: CS(=O)(=O)SC1CCN(C(C(=O)C2CC2)c2ccccc2F)CC1 (centres unmarked)
melting point: 89 to 91 °C

* * *

Listing of recorded melting point by entry.
observable: melting point

compound: COc1ccc(S(=O)(=O)SC2CCN(C(C(=O)C3CC3)c3ccccc3F)CC2)cc1 (stereo not drawn)
result: 113 to 122 °C

compound: O=C(C1CC1)C(c1ccccc1F)N1CCC(SSc2ccc([N+](=O)[O-])cc2[N+](=O)[O-])CC1 (stereo not drawn)
result: 120 to 127 °C

compound: Cc1ccc([S+]([O-])SC2CCN(C(C(=O)C3CC3)c3ccccc3F)CC2)cc1 (stereo not drawn)
result: 110 to 118 °C
